The measured values listed here are drawn from the supplement of paper PMC9732359.

test_protocol: protein stability index of a GFP-peptide fusion (yeast GPS) (PSI 1-4); higher = more stable; sorted into four equal gates, so the index is relative within each strain
experimental_conditions: san1∆
Please note: class 1 applies when protein stability index is 2 or greater, and class 0 applies otherwise.

// known answers, use as guide
EPPGSNTSFSFTKPPAN [YOR098C/NUP1]
class 1
ENFAKGEHISAIVPGQS [SWP82]
class 1
KIRARSITLQGDVYDPE [SMC2]
class 0

Request: Given CIQVNCLNCEKSKLFEW [SNM1] , state whether its protein stability index is at least 2.
Response: class 1

Request: Given GENIDADNDGPRINNIS [SNF2] , state whether its protein stability index is at least 2.
Response: class 1

Request: Given QQQQIQVPLQQTQAIAQ [YGR119C/NUP57] , state whether its protein stability index is at least 2.
Response: class 1

Request: Given YMRKQVGVGKLNKLYGG [RPS19A] , state whether its protein stability index is at least 2.
Response: class 1

Request: Given VLPKIFNSVKSFDEWFN [SNF2] , state whether its protein stability index is at least 2.
Response: class 0
